IC50: recorded values
# Test system: CCRF-CEM
# method: Cytotoxicity against human CCRF-CEM cells assessed as reduction in cell viability after 72 hrs by RRA assay
# Type: functional, cell-based

{"structure-smiles": "C=CCc1cc(C(C)=O)ccc1OCC=C(C)C", "IC50": "16.2 µM"}
{"structure-smiles": "C#CCOc1ccc(/C=C/C(=O)c2ccc(-n3ccnc3)cc2)cc1OC", "IC50": "15 µM"}
{"structure-smiles": "C#CCOc1ccc(C(C)=O)cc1CC=C", "IC50": "38.2 µM"}
{"structure-smiles": "C#CCOc1ccc(/C=C/C(=O)c2cccc(OC)c2)cc1OC", "IC50": "5.59 µM"}
{"structure-smiles": "C#CCOc1ccc(/C=C/C(=O)c2cccc(Br)c2)cc1OC", "IC50": "15.2 µM"}
{"structure-smiles": "C#CCOc1ccc(/C=C/C(=O)c2ccccc2C)cc1OC", "IC50": "6.95 µM"}
{"structure-smiles": "C#CCOc1ccc(C(=O)/C=C/c2ccc(OCC=C)c(OC)c2)cc1CC=C", "IC50": "> 50 µM"}
{"structure-smiles": "C#CCOc1ccc(/C=C/C(=O)c2cccc(C)c2)cc1OC", "IC50": "8.82 µM"}
{"structure-smiles": "C=CCOc1ccc(C=O)cc1OC", "IC50": "14 µM"}
{"structure-smiles": "C#CCOc1ccc(/C=C/C(=O)c2cccn2C)cc1OC", "IC50": "> 50 µM"}
{"structure-smiles": "C#CCOc1ccc(/C=C/C(=O)c2ccc3c(c2)OCO3)cc1OC", "IC50": "> 50 µM"}
{"structure-smiles": "C#CCOc1ccc(/C=C/C(=O)c2ccc(C)cc2)cc1OC", "IC50": "> 50 µM"}
